- experimentDescription: NCI Yeast Anticancer Drug Screen. Data for the sgs1 mgt1 strain (AID 161)
- measurementParameters: S. cerevisiae sgs1 mgt1 strain, at 50.0 µM
The panel holds about 79,000 compounds, 15% with a hit somewhere; the sample as a whole holds those more often. Calls of active or inactive are those of the source. Rule as the data show it: active = growth inhibition above about 70%; inactive = the rest.
Outcome codes: active, inactive

compound: CC(=O)c1cccc(NC(=O)C(=O)C(C(=O)c2ccccc2F)C2OC(=O)c3ccccc32)c1 (stereo unspecified)
labelClass: inactive

compound: CC(C)NC(c1ccccc1)c1ccccc1
labelClass: inactive

compound: COc1ccc(/C=C/C(=O)c2c(-c3ccccc3)nn(C)c(=O)c2N2CCCCC2)cc1
labelClass: inactive

compound: O=C1CCSC(=S)N1c1ccccc1
labelClass: inactive

compound: [N-]=[N+]=NS(=O)(=O)CCc1ccc(Cl)cc1
labelClass: inactive

compound: Nc1ccc(OCCc2c(N)nc(N)nc2N)cc1
labelClass: inactive

compound: Cc1ccc(SC(=O)N2C(=S)NC(=NC3CCCCC3)C23CCCCC3)cc1
labelClass: inactive

compound: C(=N\N(CCCCN(/N=C/c1ccccc1)c1ccccc1)c1ccccc1)/c1ccccc1
labelClass: inactive

compound: CCN(c1ccccc1)S(=O)(=O)c1cc(N)ccc1C
labelClass: inactive

compound: CCC(C)[N+](=O)[O-] (stereo unspecified)
labelClass: inactive

compound: O=C(N/N=C/C=C/c1ccccc1)NNC(=O)c1cc([N+](=O)[O-])cc([N+](=O)[O-])c1
labelClass: inactive

compound: N#CCCN(CCC#N)c1ccc(C=O)cc1
labelClass: inactive

compound: CCCCCCCCNc1ncnc2[nH]ncc12
labelClass: inactive

compound: Cc1cccc(-c2nnc3s/c(=C\c4ccc(N(C)C)cc4)c(=O)n23)c1
labelClass: inactive

compound: C[C@H]1C(=O)c2c(cc(O)c(C3OC(CO)C(O)C(O)C3O)c2O)OC1c1ccc(O)c(O)c1 (stereo partly specified)
labelClass: inactive

compound: Cc1cc(C)c(NC(=O)c2c(Cl)c(Cl)c(Cl)c(Cl)c2C(=O)O)c(C)c1
labelClass: inactive

compound: COc1ccc(C(=O)C[C@H]2CCC[C@@H](CC(=O)c3ccc(OC)cc3)N2C)cc1
labelClass: inactive

compound: CC[C@]12CCCN3CCc4c(n(c5ccccc45)C(=O)C1)[C@@H]32
labelClass: inactive

compound: CCC1(CC)SCC(C)(O)NC1=O (stereo unspecified)
labelClass: inactive

compound: C=CCOC1OC(CS(=O)(=O)O)C(OC(C)=O)C(OC(C)=O)C1OC(C)=O (stereo unspecified)
labelClass: inactive

compound: CC(=O)/C=C/C=C/c1ccco1
labelClass: inactive

compound: CCC(=O)OC(OC(=O)CC)c1ccc2c(c1)OCO2
labelClass: inactive

compound: Cc1ccc(S(=O)(=O)N2CCC(N)=N2)cc1
labelClass: inactive

compound: CCOC(=O)CCCCCOC1CCCCO1 (stereo unspecified)
labelClass: inactive

compound: COc1ccc(C(=O)/C=C/c2ccc(OC)c(OC)c2OC)c(O)c1
labelClass: inactive

compound: CCSCC(N)C(=O)O (stereo unspecified)
labelClass: inactive

compound: CCc1c(O)nc(Nc2nc3ccccc3[nH]2)[nH]c1=O
labelClass: inactive

compound: CC(C)=CCC1=C(OCC(=O)O)C(=O)c2ccccc2C1=O
labelClass: inactive

compound: CNCC(=O)NC(CO)C(=O)NC(CO)C(=O)NC1C(C(N)=O)OC(n2ccc(N)nc2=O)C(O)C1O (stereo unspecified)
labelClass: inactive

compound: CCOC(=O)CNC1C(NC(C)=O)C(OC)OC2COC(c3ccccc3)OC21 (stereo unspecified)
labelClass: inactive

compound: CCCC[P+](CCCC)(CCCC)C(C(=O)OC)C(C(=O)OC)=C1SC(C(=O)OC)=C(C(=O)OC)S1 (stereo unspecified)
labelClass: inactive

compound: CCCCCCCNC(=O)C(Cl)Cl
labelClass: inactive

compound: Cc1ccc(S(=O)(=O)OC2C(OC(=O)c3ccccc3)OCC(O)C2O)cc1 (stereo unspecified)
labelClass: inactive

compound: CCCCN(CCCC)CCC(O)c1cc(-c2ccc(C(F)(F)F)cc2)nc(-c2ccc(C(F)(F)F)cc2)c1 (stereo unspecified)
labelClass: inactive

compound: CCCCOC(=O)/C(=C\c1cccc(OC)c1)NC(=O)c1ccccc1
labelClass: inactive

compound: CN(C)Cc1cc(C(=O)/C=C/c2c(Cl)cccc2Cl)cc(CN(C)C)c1O
labelClass: inactive

compound: CCC(C(=O)c1cccs1)C(O)(C(F)(F)F)C(F)(F)F (stereo unspecified)
labelClass: inactive

compound: CSc1nc(C)c2c(n1)N(c1ccc(Cl)cc1)CC2
labelClass: inactive

compound: COC(=O)c1cc2c(cc1CC(Cc1ccc3c(c1)CCCC3)C(=O)OC)CCCC2 (stereo unspecified)
labelClass: inactive

compound: CCC1(CN(C)C)CC/C(=C\c2ccc(OC)c(OC)c2)C1=O (stereo unspecified)
labelClass: inactive

compound: OCC1COc2cc(Cl)c(Cl)cc2O1 (stereo unspecified)
labelClass: inactive

compound: Cc1ccc(N=C(C(=O)c2ccccc2)C(Nc2ccc(C)cc2)C(=O)c2ccccc2)cc1 (stereo unspecified)
labelClass: inactive

compound: CC1(C(=O)O)CCCC2(C)C3=CC(=O)CCC3=CCC12 (stereo unspecified)
labelClass: inactive

compound: CCC(C)NS(=O)(=O)c1ccc(Cl)cc1 (stereo unspecified)
labelClass: inactive

compound: CCC(CC)COC(=O)c1ccccc1C(=O)OCC(CC)CC
labelClass: inactive

compound: C1CCC2(CCC34CCCCC3CCCC4)CCCCC2C1 (stereo unspecified)
labelClass: active
